molecular target: PI3Kα H1047R (T47D cells) (Homo sapiens, UniProt P42336, H1047R); construct: endogenous in cells; host or cells: T47D cells; assay: PI3Kα cellular assay: pAKT HTRF in T47D cells after EGF stimulation; assay type: cell-based; conditions: selectivity T47D (H1047R) over SKBR3 (WT), pAKT HTRF
Sequence (P42336 whole entry H1047R): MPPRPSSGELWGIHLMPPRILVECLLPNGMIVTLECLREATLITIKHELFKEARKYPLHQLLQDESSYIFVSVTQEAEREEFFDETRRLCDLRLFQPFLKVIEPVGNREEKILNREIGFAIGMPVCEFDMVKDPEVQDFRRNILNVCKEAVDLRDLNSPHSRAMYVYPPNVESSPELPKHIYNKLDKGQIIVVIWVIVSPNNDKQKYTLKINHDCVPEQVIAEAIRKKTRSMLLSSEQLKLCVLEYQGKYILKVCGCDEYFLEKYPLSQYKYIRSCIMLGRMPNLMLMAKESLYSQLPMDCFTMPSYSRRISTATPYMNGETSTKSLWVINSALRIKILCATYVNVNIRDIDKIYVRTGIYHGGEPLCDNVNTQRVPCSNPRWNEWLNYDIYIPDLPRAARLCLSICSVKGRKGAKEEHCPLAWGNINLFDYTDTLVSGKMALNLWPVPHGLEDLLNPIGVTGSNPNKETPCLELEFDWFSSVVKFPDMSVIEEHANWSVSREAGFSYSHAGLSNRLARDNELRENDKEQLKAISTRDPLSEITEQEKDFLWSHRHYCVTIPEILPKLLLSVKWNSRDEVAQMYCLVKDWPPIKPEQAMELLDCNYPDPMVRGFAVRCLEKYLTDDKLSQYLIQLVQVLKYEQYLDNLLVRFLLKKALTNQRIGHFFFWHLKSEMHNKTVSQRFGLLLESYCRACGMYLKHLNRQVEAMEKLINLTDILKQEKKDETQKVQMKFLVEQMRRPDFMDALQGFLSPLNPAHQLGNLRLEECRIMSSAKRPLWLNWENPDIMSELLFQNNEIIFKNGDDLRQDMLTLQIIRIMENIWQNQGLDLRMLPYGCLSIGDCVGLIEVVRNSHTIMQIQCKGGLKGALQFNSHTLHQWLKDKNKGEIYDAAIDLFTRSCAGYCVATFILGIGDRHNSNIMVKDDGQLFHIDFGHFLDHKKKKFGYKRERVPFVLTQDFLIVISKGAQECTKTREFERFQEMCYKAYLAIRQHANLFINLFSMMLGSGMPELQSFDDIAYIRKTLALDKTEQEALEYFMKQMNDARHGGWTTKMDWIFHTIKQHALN
Sequence (P27986 whole entry partner): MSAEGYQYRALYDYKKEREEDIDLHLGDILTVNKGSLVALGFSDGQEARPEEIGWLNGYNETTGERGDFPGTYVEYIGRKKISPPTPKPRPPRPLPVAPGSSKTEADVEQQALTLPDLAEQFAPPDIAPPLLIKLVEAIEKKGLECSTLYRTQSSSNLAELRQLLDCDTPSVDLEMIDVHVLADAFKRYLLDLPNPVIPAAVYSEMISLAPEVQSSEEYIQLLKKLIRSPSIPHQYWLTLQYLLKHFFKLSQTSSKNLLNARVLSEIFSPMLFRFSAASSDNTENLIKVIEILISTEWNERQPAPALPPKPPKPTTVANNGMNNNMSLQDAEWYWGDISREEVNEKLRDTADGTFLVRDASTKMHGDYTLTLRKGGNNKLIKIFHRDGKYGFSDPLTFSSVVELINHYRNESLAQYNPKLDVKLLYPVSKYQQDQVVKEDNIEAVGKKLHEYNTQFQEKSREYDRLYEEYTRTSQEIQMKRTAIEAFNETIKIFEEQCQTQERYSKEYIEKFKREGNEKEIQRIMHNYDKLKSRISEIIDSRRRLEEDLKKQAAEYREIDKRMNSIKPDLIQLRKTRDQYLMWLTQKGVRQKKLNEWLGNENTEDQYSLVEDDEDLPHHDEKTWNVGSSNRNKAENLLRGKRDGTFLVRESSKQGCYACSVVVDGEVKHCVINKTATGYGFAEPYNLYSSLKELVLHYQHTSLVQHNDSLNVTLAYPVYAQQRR
outcomeMeasure: T47D pAKT S473 HTRF IC50 (H1047R): T47D (H1047R) selectivity over SKBR3 (WT)

In [3]: df
Out[3]:
                                   molecule                  result
0  Cc1cc([C@@H](C)Nc2c(C)cccc2C(=O)O)c2nc(N3CCOCC3)cc(=O)n2c1 [Compound 335]   C (C denotes ≤5-fold)
1  Cc1cc([C@@H](C)Nc2ccccc2-n2nn[nH]c2=O)c2nc(N3CCOCC3)cc(=O)n2c1 [Compound 343]   C (C denotes ≤5-fold)
2  Cc1cc([C@@H](C)Nc2ccccc2C(=O)O)c2nc(-c3ccc(F)cc3)cc(=O)n2c1 (single isomer, unassigned) [Compound 424]  A (A denotes >20-fold)
3  Cc1cc([C@@H](C)Nc2ccccc2C(=O)O)c2nc(-c3ccc4[nH]c(=O)oc4c3)cc(=O)n2c1 [Compound 541]  A (A denotes >20-fold)
4  Cc1cc([C@H](C)Nc2ccccc2-c2ccnnc2)c2nc([C@@H]3CCCOC3)c(C)c(=O)n2c1 [Compound 1407]  A (A denotes >20-fold)
5  Cc1cc(C(C)Nc2ccccc2C(=O)O)c2nc(Nc3ccc4[nH]c(=O)[nH]c4c3)cc(=O)n2c1 (centres unmarked) [Compound 505]   C (C denotes ≤5-fold)
